Test system: Klebsiella aerogenes DSM 30053
Assay: fold change of Putrescine concentration vs plate DMSO controls (fold change (ratio)); higher = more amine produced, active = hit call of the paper (significant change in both replicates, either direction)
Settings: incubation time: 27 h, anaerobic, 37 °C
Where a name gives a salt, the structure may show the parent alone.
Examples of molecules with documented fold change of Putrescine concentration follow.

CC(=O)Oc1cc2c(s1)CCN(C(C(=O)C1CC1)c1ccccc1F)C2 (configuration not stated) [Prasugrel] (20 µM)    1.01 (inactive)
CC1(C)O[C@@H]2C[C@H]3[C@@H]4C[C@H](F)C5=CC(=O)C=C[C@]5(C)[C@H]4[C@@H](O)C[C@]3(C)[C@]2(C(=O)CO)O1 [Flunisolide] (20 µM)    1.05 (inactive)
NS(=O)(=O)c1cc2c(cc1C(F)(F)F)NCNS2(=O)=O [Hydroflumethiazide] (20 µM)    1.01 (inactive)
CN(C)CCOC(c1ccc(Cl)cc1)c1ccccn1 (configuration not stated) [Carbinoxamine maleate salt] (20 µM)    1.02 (inactive)
c1cc2ccc3ccc4ccc5cccc6c(c1)c2c3c4c56 [Benzo-[g,h,i]perylene] (20 µM)    1.01 (inactive)
CC(C)C(=O)OCC(=O)[C@@]12O[C@H](C3CCCCC3)O[C@@H]1C[C@H]1[C@@H]3CCC4=CC(=O)C=C[C@]4(C)[C@H]3[C@@H](O)C[C@@]12C [Ciclesonide] (20 µM)    0.999 (inactive)

Bench note: what fold change of Putrescine concentration did COc1ccccc1OCC(O)COC(N)=O (configuration not stated) [Methocarbamol] (20 µM) show?
1.01 (inactive)

---

System: Klebsiella aerogenes DSM 30053
Test: growth (OD595) fold change vs plate DMSO controls (fold change (ratio)); higher = more growth
Conditions: incubation time: 27 h, anaerobic, 37 °C
Where a name gives a salt, the structure may show the parent alone.
Endpoint name: growth
Please state the value as a number alone, without comment.

Worked cases, answers included:
CC(CN(C)C)C(C)(O)Cc1ccc(Cl)cc1 (stereo not given) [Clobutinol hydrochloride] (20 µM)    1.02
CCCCNc1ccc(C(=O)OCCOCCOCCOCCOCCOCCOCCOCCOCCOC)cc1 [Benzonatate] (20 µM)    1.04
CCOC(=O)C(C)(C)Oc1ccc(Cl)cc1 [Clofibrate] (20 µM)    1.03
NC(=O)C(c1ccccc1)(c1ccccc1)[C@@H]1CCN(CCc2ccc3c(c2)CCO3)C1 [Darifenacin hydrobromide] (20 µM)    1.02

Could you now consider this next molecule?
Bench note: what growth did CC1(C)[C@H](C(=O)O)N2C(=O)C[C@H]2S1(=O)=O [Sulbactam] (20 µM) show?
0.976

---

Test system: Escherichia coli IAI1
Assay: fold change of Cadaverine concentration vs plate DMSO controls (fold change (ratio)); higher = more amine produced, active = hit call of the paper (significant change in both replicates, either direction)
Conditions: incubation time: 27 h, anaerobic, 37 °C
Where a name gives a salt, the structure may show the parent alone.
Endpoint name: fold change of Cadaverine concentration

Worked cases, answers included:
Cc1cccc(CN2CCN(C(c3ccccc3)c3ccc(Cl)cc3)CC2)c1 (stereo unspecified) [Meclozine dihydrochloride] (20 µM)    0.971 (inactive)
O=C(O[C@@H]1C[C@@H]2C[C@H]3C[C@H](C1)N2CC3=O)c1c[nH]c2ccccc12 [Dolasetron mesilate] (20 µM)    0.979 (inactive)
O=C(Nc1ccc([N+](=O)[O-])cc1Cl)c1cc(Cl)ccc1O [Niclosamide] (20 µM)    1.31 (active)

Bench note: what fold change of Cadaverine concentration did CC(=O)N[C@@H](CS)C(=O)O [Acetylcysteine] (20 µM) show?
1.02 (inactive)

Bench note: what fold change of Cadaverine concentration did Nc1ccn([C@@H]2O[C@H](CO)[C@@H](O)[C@@H]2O)c(=O)n1 [Cytarabine] (20 µM) show?
1.32 (active)

Bench note: what fold change of Cadaverine concentration did CC1(C)O[C@@H]2C[C@H]3[C@@H]4CCC5=CC(=O)CC[C@]5(C)[C@@]4(F)[C@@H](O)C[C@]3(C)[C@]2(C(=O)CCl)O1 [Halcinonide] (20 µM) show?
1.02 (inactive)

Bench note: what fold change of Cadaverine concentration did C=C1c2c(Cl)ccc(O)c2C(O)=C2C(=O)[C@]3(O)C(O)=C(C(N)=O)C(=O)[C@@H](N(C)C)[C@@H]3[C@@H](O)[C@H]12.O=C(O)c1cc(S(=O)(=O)O)ccc1O [Meclocycline sulfosalicylate] (20 µM) show?
0.447 (active)

Bench note: what fold change of Cadaverine concentration did CCc1nc(N)nc(N)c1-c1ccc(Cl)cc1 [Pyrimethamine] (20 µM) show?
1.32 (active)

---

Tested on: Clostridium sporogenes DSM 1664
Assay: growth (OD595) fold change vs plate DMSO controls (fold change (ratio)); higher = more growth
Details: incubation time: 27 h, anaerobic, 37 °C
Examples of molecules with documented growth follow.
Please state the value as a number alone, without comment.

For Clostridium sporogenes DSM 1664, provide growth of CC[C@@H]1C(=O)OC[C@@H]1Cc1cncn1C [Pilocarpine nitrate] (20 µM) please.
1.03

For Clostridium sporogenes DSM 1664, provide growth of C=CCSCC1Nc2cc(Cl)c(S(N)(=O)=O)cc2S(=O)(=O)N1 (stereo not drawn) [Althiazide] (20 µM) please.
1.06

For Clostridium sporogenes DSM 1664, provide growth of CCc1oc2ccccc2c1C(=O)c1cc(I)c(O)c(I)c1 [Benziodarone] (20 µM) please.
0.283

---

System: Clostridium sporogenes DSM 1664
Assay: growth (OD595) fold change vs plate DMSO controls (fold change (ratio)); higher = more growth
Details: incubation time: 27 h, anaerobic, 37 °C
Where a name gives a salt, the structure may show the parent alone.
Examples of molecules with documented growth follow.
Please state the value as a number alone, without comment.

Bench note: what growth did CCN(CC)CCOC(=O)C1(c2ccc([N+](=O)[O-])cc2)CCCC1 [Nitrocaramiphen hydrochloride] (20 µM) show?
0.793

Bench note: what growth did CC(C)C(=O)OCC(=O)[C@@]12O[C@H](C3CCCCC3)O[C@@H]1C[C@H]1[C@@H]3CCC4=CC(=O)C=C[C@]4(C)[C@H]3[C@@H](O)C[C@@]12C [Ciclesonide] (20 µM) show?
1.08

Bench note: what growth did O=C(O)c1ccccc1C(=O)Nc1ccc(S(=O)(=O)Nc2nccs2)cc1 [Phthalylsulfathiazole] (20 µM) show?
0.901

---

Tested on: Clostridium sporogenes DSM 1664
Experiment: growth (OD595) fold change vs plate DMSO controls (fold change (ratio)); higher = more growth
Conditions: incubation time: 27 h, anaerobic, 37 °C
I would appreciate it if you labelled entries t when growth is 0.9 or higher, otherwise f.

Cc1onc(-c2ccccc2)c1C(=O)N[C@@H]1C(=O)N2[C@@H]1SC(C)(C)[C@@H]2C(=O)O [Oxacillin sodium] (20 µM)    f
N[C@@H](Cc1cc(I)c(Oc2ccc(O)c(I)c2)c(I)c1)C(=O)O [Liothyronine] (20 µM)    t
OC[C@H](O)C(O)[C@@H](O)CO [L-Arabinitol] (50 µM)    t
O=c1[nH]cnc2c1ncn2[C@@H]1O[C@H](CO)[C@@H](O)[C@H]1O [Inosine] (20 µM)    t

Determine whether measured growth meets or exceeds 0.9 for O=C(C1CCCCC1)N1CC(=O)N2CCc3ccccc3C2C1 (stereo not drawn) [Praziquantel] (20 µM)
t

Determine whether measured growth meets or exceeds 0.9 for O=C(CCCN1CCN(c2ccccn2)CC1)c1ccc(F)cc1 [Azaperone] (20 µM)
t

---

Test system: Ruminococcus gnavus DSM 108212
Assay: growth (OD595) fold change vs plate DMSO controls (fold change (ratio)); higher = more growth
Conditions: incubation time: 27 h, anaerobic, 37 °C
Where a name gives a salt, the structure may show the parent alone.
Endpoint name: growth
Please state the value as a number alone, without comment.

Worked cases, answers included:
CC(C)NCC(O)COc1cccc2[nH]c3ccccc3c12 (stereo unspecified) [Carazolol] (20 µM)    1.12
Cn1cc(C(=O)[C@@H]2CCc3[nH]cnc3C2)c2ccccc21 [Ramosetron hydrochloride] (20 µM)    0.964
Nc1ccn([C@H]2CC[C@@H](CO)O2)c(=O)n1 [Zalcitabine] (20 µM)    0.997
CC1(C)S[C@@H]2[C@H](NC(=O)[C@H](N)c3ccc(O)cc3)C(=O)N2[C@H]1C(=O)O [Amoxicillin] (20 µM)    0.198
CCN1CCCC1CNC(=O)c1cc(S(N)(=O)=O)ccc1OC (stereo unspecified) [Sulpiride] (20 µM)    1.18

Bench note: what growth did COC(=O)C1=C(C)NC(C)=C(C(=O)OCCN(C)Cc2ccccc2)C1c1cccc([N+](=O)[O-])c1 (stereo unspecified) [Nicardipine hydrochloride] (20 µM) show?
1.18

Bench note: what growth did NC[C@H]1O[C@H](O[C@H]2[C@H](O)[C@@H](O[C@H]3O[C@H](CO)[C@@H](O)[C@H](N)[C@H]3O)[C@H](N)C[C@@H]2N)[C@H](N)C[C@@H]1O [Tobramycin] (20 µM) show?
0.73

Bench note: what growth did Cc1ccsc1/C=C/C1=NCCCN1C [Morantel tartrate] (20 µM) show?
1.08

Bench note: what growth did CC(N/C(=N\C#N)Nc1ccncc1)C(C)(C)C (stereo unspecified) [Pinacidil monohydrate] (20 µM) show?
1.13

Bench note: what growth did CN1CCN(CCCN2c3ccccc3Sc3ccc(C(F)(F)F)cc32)CC1 [Trifluoperazine dihydrochloride] (20 µM) show?
0.968

Bench note: what growth did O=C1c2ccccc2C(=O)C1c1ccccc1 [Phenindione] (20 µM) show?
1.07

Bench note: what growth did CN(C/C=C/c1ccccc1)Cc1cccc2ccccc12 [Naftifine hydrochloride] (20 µM) show?
0.89

Bench note: what growth did COc1ccnc(C[S+]([O-])c2nc3cc(OC(F)F)ccc3[nH]2)c1OC (stereo unspecified) [Pantoprazole sodium] (20 µM) show?
0.958

Where do the numbers come from? From the supplement of paper PMC12494721.
